Assay comment: Inhibition of chemiluminescence generated by hypoxanthine/ xanthine oxidase was determined
Design: concentration or dose not given beside the values
Reported conditions: concentration not given here
Value kind: inhibition (%)
Answers are plain numbers, in %.

Would you please look over these solved cases?
CCOC(=O)c1cc2ccccn2/c(=N/c2ccc(F)cc2)n1	49.6
CCOC(=O)c1cc2ccccn2/c(=N/c2ccc(Br)cc2)n1	32.2
CCOC(=O)c1cc2ccccn2c(=S)n1	43.3
CCOC(=O)c1cc2ccccn2c(=O)n1	26.6

For the next question, use this compound.
Exam item: Form field: reported inhibition of CCOC(=O)c1cc2ccccn2/c(=N/c2ccc(Cl)cc2)n1
Marked response: 31.3

* * *

Exercise: for every item that follows, state its recorded PGE2 Level.
Organism: Mus musculus
Assay comment: PGE-2 levels were assayed in LPS stimulated RAW 264.7 macrophages for 20h in either presence or absence of compound
Format: functional
One number for each entry, in ng/mL.

[S-]c1nc2ccccc2c2cccc[n+]12	16.9

Give one value of PGE2 Level per listed compound.
1. CCOC(=O)c1cc2ccccn2/c(=N/c2ccccc2)n1
2. CCOC(=O)c1cc2ccccn2/c(=N/c2ccc(Br)cc2)n1
3. CCOC(=O)c1cc2ccccn2/c(=N/c2ccc(OC)cc2)n1

Marked response:
1. 10.9
2. 14.8
3. 12
